System: MCF7
Measurement notes: HRG-induced Akt activation (dPAkt = log2 pAkt/Akt HRG-stimulated minus log2 pAkt/Akt basal) (log2 ratio difference); higher = stronger HRG-induced Akt(T308) phosphorylation
Assay context: miRNA mimic concentration 10 nM; time after transfection 72 h; heregulin 10 ng/ml; stimulation time 1 h
Documented HRG-induced Akt activation (log2) across a set of sequences
Experimental endpoint: HRG-induced Akt activation (log2)

INSERT INTO assay_data (sequence_chain, experimental_endpoint, result) VALUES
  ('AUGGGUGAAUUUGUAGAAGGAU', 'HRG-induced Akt activation (log2)', 1.81),
  ('UUUGGCAAUGGUAGAACUCACACU', 'HRG-induced Akt activation (log2)', 1.75),
  ('AUCCCUUGCAGGGGCUGUUGGGU', 'HRG-induced Akt activation (log2)', 1.02),
  ('CUGAAGUGAUGUGUAACUGAUCAG', 'HRG-induced Akt activation (log2)', 1.73),
  ('AACAAUAUCCUGGUGCUGAGUG', 'HRG-induced Akt activation (log2)', 1.79),
  ('CAGUUAUCACAGUGCUGAUGCU', 'HRG-induced Akt activation (log2)', 1.66),
  ('AGGUUGGGAUCGGUUGCAAUGCU', 'HRG-induced Akt activation (log2)', 1.59),
  ('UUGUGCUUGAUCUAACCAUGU', 'HRG-induced Akt activation (log2)', 1.1);

* * *

Documented HRG-induced Akt activation (log2) across a set of sequences
Test system: MCF7
Measurement notes: HRG-induced Akt activation (dPAkt = log2 pAkt/Akt HRG-stimulated minus log2 pAkt/Akt basal) (log2 ratio difference); higher = stronger HRG-induced Akt(T308) phosphorylation
Assay context: miRNA mimic concentration 10 nM; time after transfection 72 h; heregulin 10 ng/ml; stimulation time 1 h
Experimental endpoint: HRG-induced Akt activation (log2)

INSERT INTO assay_data (sequence_chain, experimental_target, experimental_endpoint, number) VALUES
  ('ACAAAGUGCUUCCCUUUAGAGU', 'MCF7', 'HRG-induced Akt activation (log2)', 1.75),
  ('CCAGUGGGGCUGCUGUUAUCUG', 'MCF7', 'HRG-induced Akt activation (log2)', 1.78),
  ('CUAUACGACCUGCUGCCUUUCU', 'MCF7', 'HRG-induced Akt activation (log2)', 1.47),
  ('AGGGUGUUUCUCUCAUCUCU', 'MCF7', 'HRG-induced Akt activation (log2)', 2.04),
  ('GCAAAGCACACGGCCUGCAGAGA', 'MCF7', 'HRG-induced Akt activation (log2)', 1.27),
  ('GAUGAUGAUGGCAGCAAAUUCUGAAA', 'MCF7', 'HRG-induced Akt activation (log2)', 1.87),
  ('AUUCUGCAUUUUUAGCAAGUUC', 'MCF7', 'HRG-induced Akt activation (log2)', 1.8),
  ('UUCUGGAAUUCUGUGUGAGGGA', 'MCF7', 'HRG-induced Akt activation (log2)', 1.78),
  ('AAUCGUACAGGGUCAUCCACUU', 'MCF7', 'HRG-induced Akt activation (log2)', 1.46),
  ('UUUUUCAUUAUUGCUCCUGACC', 'MCF7', 'HRG-induced Akt activation (log2)', 1.62),
  ('CUAGACUGAAGCUCCUUGAGG', 'MCF7', 'HRG-induced Akt activation (log2)', 1.46),
  ('AAUGCACCUGGGCAAGGAUUCA', 'MCF7', 'HRG-induced Akt activation (log2)', 1.43),
  ('UCAGCUGGCCCUCAUUUC', 'MCF7', 'HRG-induced Akt activation (log2)', 1.12),
  ('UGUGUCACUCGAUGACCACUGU', 'MCF7', 'HRG-induced Akt activation (log2)', 2.42),
  ('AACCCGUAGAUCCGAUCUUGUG', 'MCF7', 'HRG-induced Akt activation (log2)', 0.985),
  ('GGAGAAAUUAUCCUUGGUGUGU', 'MCF7', 'HRG-induced Akt activation (log2)', 0.932),
  ('AGUGAAUGAUGGGUUCUGACC', 'MCF7', 'HRG-induced Akt activation (log2)', 1.88),
  ('GAGGGUUGGGUGGAGGCUCUCC', 'MCF7', 'HRG-induced Akt activation (log2)', 1.47),
  ('UAUGGCUUUUUAUUCCUAUGUGA', 'MCF7', 'HRG-induced Akt activation (log2)', 1.27),
  ('GGGCGCCUGUGAUCCCAAC', 'MCF7', 'HRG-induced Akt activation (log2)', 1.62),
  ('AGGAUGAGCAAAGAAAGUAGAUU', 'MCF7', 'HRG-induced Akt activation (log2)', 1.13),
  ('AACACACCUGGUUAACCUCUUU', 'MCF7', 'HRG-induced Akt activation (log2)', 1.23),
  ('AAAUUAUUGUACAUCGGAUGAG', 'MCF7', 'HRG-induced Akt activation (log2)', 1.48),
  ('AGGGGUGGUGUUGGGACAGCUCCGU', 'MCF7', 'HRG-induced Akt activation (log2)', 2.91),
  ('AAGACGGGAGGAAAGAAGGGAG', 'MCF7', 'HRG-induced Akt activation (log2)', 1.22),
  ('UCGGGGAUCAUCAUGUCACGAGA', 'MCF7', 'HRG-induced Akt activation (log2)', 1.93),
  ('UUUAACAUGGGGGUACCUGCUG', 'MCF7', 'HRG-induced Akt activation (log2)', 1.59),
  ('UAAGGCACGCGGUGAAUGCC', 'MCF7', 'HRG-induced Akt activation (log2)', 1.15),
  ('UAUUGCACUUGUCCCGGCCUGU', 'MCF7', 'HRG-induced Akt activation (log2)', 1.3),
  ('GUCAGCGGAGGAAAAGAAACU', 'MCF7', 'HRG-induced Akt activation (log2)', 1.47),
  ('UACCACAGGGUAGAACCACGG', 'MCF7', 'HRG-induced Akt activation (log2)', 1.43),
  ('GAUUAGGGUGCUUAGCUGUUAA', 'MCF7', 'HRG-induced Akt activation (log2)', 1.67),
  ('GCGACCCACUCUUGGUUUCCA', 'MCF7', 'HRG-induced Akt activation (log2)', 1.8),
  ('UGUGAGGUUGGCAUUGUUGUCU', 'MCF7', 'HRG-induced Akt activation (log2)', 2.02),
  ('AAAAGUAAUCGCGGUUUUUGUC', 'MCF7', 'HRG-induced Akt activation (log2)', 1.2),
  ('GAGGGUCUUGGGAGGGAUGUGAC', 'MCF7', 'HRG-induced Akt activation (log2)', 1.44),
  ('UUGCAGCUGCCUGGGAGUGACUUC', 'MCF7', 'HRG-induced Akt activation (log2)', 0.96),
  ('AUUGAUCAUCGACACUUCGAACGCAAU', 'MCF7', 'HRG-induced Akt activation (log2)', 1.38),
  ('AUAAGACGAACAAAAGGUUUGU', 'MCF7', 'HRG-induced Akt activation (log2)', 1.75),
  ('UUGAGAAUGAUGAAUCAUUAGG', 'MCF7', 'HRG-induced Akt activation (log2)', 1.82),
  ('UCAGUGCAUGACAGAACUUGG', 'MCF7', 'HRG-induced Akt activation (log2)', 1.09),
  ('GGAGGGGUCCCGCACUGGGAGG', 'MCF7', 'HRG-induced Akt activation (log2)', 1.82),
  ('UCAAAACUGAGGGGCAUUUUCU', 'MCF7', 'HRG-induced Akt activation (log2)', 1.34),
  ('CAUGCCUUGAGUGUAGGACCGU', 'MCF7', 'HRG-induced Akt activation (log2)', 1.16),
  ('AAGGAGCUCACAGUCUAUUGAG', 'MCF7', 'HRG-induced Akt activation (log2)', 1.97),
  ('GUAGAGGAGAUGGCGCAGGG', 'MCF7', 'HRG-induced Akt activation (log2)', 1.33),
  ('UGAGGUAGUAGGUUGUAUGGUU', 'MCF7', 'HRG-induced Akt activation (log2)', 1.07),
  ('UACCCAGAGCAUGCAGUGUGAA', 'MCF7', 'HRG-induced Akt activation (log2)', 1.78),
  ('CGUGUAUUUGACAAGCUGAGUU', 'MCF7', 'HRG-induced Akt activation (log2)', 2.29),
  ('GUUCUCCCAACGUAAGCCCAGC', 'MCF7', 'HRG-induced Akt activation (log2)', 1.62),
  ('UCUUCUCUGUUUUGGCCAUGUG', 'MCF7', 'HRG-induced Akt activation (log2)', 1.27),
  ('CAAAACUGGCAAUUACUUUUGC', 'MCF7', 'HRG-induced Akt activation (log2)', 1.5),
  ('GUGGGGGAGAGGCUGUC', 'MCF7', 'HRG-induced Akt activation (log2)', 1.33),
  ('GACUAUAGAACUUUCCCCCUCA', 'MCF7', 'HRG-induced Akt activation (log2)', 1.07),
  ('GACCUGGACAUGUUUGUGCCCAGU', 'MCF7', 'HRG-induced Akt activation (log2)', 1.71),
  ('CCUGUUCUCCAUUACUUGGCUC', 'MCF7', 'HRG-induced Akt activation (log2)', 1.53);
